Assay procedure: Half life in iv dosed rat
Type: ADME, organism-based
Particulars: in vivo
Endpoint: half-life (h)
Kindly answer with a numeric value in h, unit omitted.

Exercise: Provide half-life value for the following compound: Cn1c2c(c3cc(O)ccc31)C(CNC(=O)c1ccc(OC(F)(F)F)cc1)CCC2 (stereo unspecified)
Key: 2.1

---

Assay procedure: Oral bioavailability in rat administered through PEG400
Assay type: ADME, organism-based
Particulars: in vivo
Endpoint: bioavailability (%)
Reply numerically in %, unit not repeated.

Exercise: Return bioavailability for the following molecule: Cn1c2c(c3cc(O)ccc31)C(CNC(=O)c1ccc(OC(F)(F)F)cc1)CCC2 (stereo unspecified)
Key: 30.2

---

Measurement target: Transient receptor potential cation channel subfamily V member 1 (Rattus norvegicus, UniProt O35433)
Sequence (O35433 whole entry): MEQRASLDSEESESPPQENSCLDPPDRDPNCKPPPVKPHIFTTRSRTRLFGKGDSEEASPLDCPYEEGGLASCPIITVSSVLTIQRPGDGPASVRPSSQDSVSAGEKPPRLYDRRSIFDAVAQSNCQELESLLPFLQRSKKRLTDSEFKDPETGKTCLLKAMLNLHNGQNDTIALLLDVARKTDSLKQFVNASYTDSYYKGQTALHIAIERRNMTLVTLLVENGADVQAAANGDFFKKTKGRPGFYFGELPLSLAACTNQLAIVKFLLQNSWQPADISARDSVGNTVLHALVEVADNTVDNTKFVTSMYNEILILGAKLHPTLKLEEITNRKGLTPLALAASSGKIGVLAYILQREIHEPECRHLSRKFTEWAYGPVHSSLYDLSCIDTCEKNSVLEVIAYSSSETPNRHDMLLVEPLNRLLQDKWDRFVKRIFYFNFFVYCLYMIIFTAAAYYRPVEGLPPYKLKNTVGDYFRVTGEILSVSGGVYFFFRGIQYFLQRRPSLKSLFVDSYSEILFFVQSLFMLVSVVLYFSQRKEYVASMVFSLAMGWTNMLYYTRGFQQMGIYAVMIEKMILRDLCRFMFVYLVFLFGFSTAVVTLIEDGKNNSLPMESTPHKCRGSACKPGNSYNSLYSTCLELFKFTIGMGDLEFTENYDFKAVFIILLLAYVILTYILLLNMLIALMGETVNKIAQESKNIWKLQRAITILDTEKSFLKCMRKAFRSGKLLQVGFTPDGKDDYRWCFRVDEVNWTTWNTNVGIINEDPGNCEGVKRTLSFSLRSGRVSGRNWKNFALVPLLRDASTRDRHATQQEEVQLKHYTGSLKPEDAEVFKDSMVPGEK
Assay procedure: Antagonist activity at rat TRPV1 assessed as inhibition of capsaicin-induced calcium mobilization
Endpoint: IC50 (nM)
Numeric only. Scale: nM

Known results for compounds:
{"Compound": "COc1ccc2[nH]cc(C(C)CNC(=O)c3ccc(OC(F)(F)F)cc3)c2c1 (centres undefined)", "IC50 (nM)": 5200}
{"Compound": "Cn1c2c(c3cc(O)ccc31)C(CNC(=O)c1ccc(OC(F)(F)F)cc1)CCC2 (centres undefined)", "IC50 (nM)": 410}

Exercise: Answer with reported IC50 of CC(C)(C)c1ccc(NC(=O)c2ccc(OC(F)(F)C(F)F)cc2)cc1
Key: 260

Exercise: Supply IC50 value. Item: CC(CNC(=O)c1ccc(OC(F)(F)F)cc1)c1ccc(O)c2ccc(O)cc12 (racemic)
Key: 44

---

Measurement target: Transient receptor potential cation channel subfamily V member 1 (Homo sapiens)
Sequence (Q8NER1 whole entry): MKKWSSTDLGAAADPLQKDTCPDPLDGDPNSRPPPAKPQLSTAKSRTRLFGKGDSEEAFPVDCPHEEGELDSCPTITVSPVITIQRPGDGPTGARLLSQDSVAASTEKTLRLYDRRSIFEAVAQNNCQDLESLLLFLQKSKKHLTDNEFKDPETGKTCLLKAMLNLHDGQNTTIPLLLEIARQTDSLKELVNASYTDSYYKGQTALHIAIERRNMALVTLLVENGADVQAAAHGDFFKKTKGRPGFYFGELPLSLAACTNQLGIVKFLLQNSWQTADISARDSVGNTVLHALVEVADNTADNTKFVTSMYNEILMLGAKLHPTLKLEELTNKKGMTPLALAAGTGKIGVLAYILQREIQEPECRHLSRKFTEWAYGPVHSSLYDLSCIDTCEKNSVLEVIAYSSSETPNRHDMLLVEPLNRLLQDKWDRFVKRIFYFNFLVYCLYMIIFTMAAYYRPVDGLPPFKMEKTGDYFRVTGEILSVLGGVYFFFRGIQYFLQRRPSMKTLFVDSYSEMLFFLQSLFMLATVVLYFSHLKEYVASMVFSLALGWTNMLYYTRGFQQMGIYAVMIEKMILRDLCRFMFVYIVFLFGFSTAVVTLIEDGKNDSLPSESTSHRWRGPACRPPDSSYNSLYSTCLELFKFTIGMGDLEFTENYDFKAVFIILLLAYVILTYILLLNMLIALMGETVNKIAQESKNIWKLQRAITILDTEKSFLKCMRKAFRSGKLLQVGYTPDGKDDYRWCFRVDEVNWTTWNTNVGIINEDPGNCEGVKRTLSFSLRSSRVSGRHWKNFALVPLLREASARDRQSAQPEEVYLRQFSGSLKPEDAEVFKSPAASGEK
Assay procedure: Antagonist activity at human TRPV1 assessed as inhibition of capsaicin-induced calcium influx in HEK293 cells
Assay type: functional, cell-based
Endpoint: pIC50
pIC50 here: minus log base 10 of the concentration, concentration in moles per litre.

{"Molecule": "O=C(NCCc1c[nH]c2ccccc12)c1ccc(C(F)(F)F)cc1", "pIC50": 5.37}
{"Molecule": "O=C(Nc1ccc(I)cc1)c1ccc(C(=O)C(F)(F)F)cc1", "pIC50": 6.10}
{"Molecule": "CC(C)(C)c1ccc(NC(=O)c2ccc(OC(F)(F)F)cc2)cc1", "pIC50": 6.92}
{"Molecule": "COc1ccc2ccn(CCNC(=O)c3ccc(OC(F)(F)F)cc3)c2c1", "pIC50": 5.45}
{"Molecule": "O=C(NCCc1c[nH]c2ccc(Cl)cc12)c1ccc(OC(F)(F)F)cc1", "pIC50": 5.43}

Exercise: Find the measured pIC50 of Cc1[nH]c2ccc(O)cc2c1C(C)CNC(=O)c1ccc(OC(F)(F)F)cc1 (stereo unspecified) and report it.
Key: 5.48

Exercise: Tell me measured pIC50 for COc1ccc2[nH]cc(CCNC(=O)c3ccc(OC(F)(F)F)cc3)c2c1 please.
Key: 5.88

Exercise: State its pIC50 for this molecule: O=C(Nc1ccc(I)cc1)c1ccc(C(F)(F)F)cc1
Key: 6.48

---

Measurement target: Transient receptor potential cation channel subfamily V member 1 (Homo sapiens)
Assay procedure: Antagonist activity at human TRPV1 assessed as inhibition of capsaicin-induced calcium influx in HEK293 cells
Endpoint: IC50 (nM)
Give the value, in units of nM, as a plain number.

{"Molecule": "CC(C)(C)c1ccc(NC(=O)c2ccc(OC(F)(F)C(F)F)cc2)cc1", "Measurement target": "Transient receptor potential cation channel subfamily V member 1 (Homo sapiens)", "IC50, nM": 70}
{"Molecule": "O=C(NCCc1c[nH]c2ccc(O)cc12)c1ccc(OC(F)(F)F)cc1", "Measurement target": "Transient receptor potential cation channel subfamily V member 1 (Homo sapiens)", "IC50, nM": 1730}
{"Molecule": "O=C(NCCc1ccccc1F)c1ccc(OC(F)(F)F)cc1", "Measurement target": "Transient receptor potential cation channel subfamily V member 1 (Homo sapiens)", "IC50, nM": 3490}
{"Molecule": "O=C(NCCN1CCCc2ccc(O)cc21)c1ccc(OC(F)(F)F)cc1", "Measurement target": "Transient receptor potential cation channel subfamily V member 1 (Homo sapiens)", "IC50, nM": 960}

Exercise: Tell me measured IC50 for CC(CNC(=O)c1ccc(OC(F)(F)F)cc1)c1ccc(O)c2ccc(O)cc12 (racemic) please.
Key: 14

Exercise: Name the recorded IC50 of the item O=C(NCCn1ccc2ccccc21)c1ccc(OC(F)(F)F)cc1 in your answer.
Key: 7300

Exercise: Write down IC50 measured for item Cn1c2c(c3cc(O)ccc31)C(CNC(=O)c1ccc(OC(F)(F)F)cc1)CCC2 (configuration not stated)
Key: 23

Exercise: Give IC50 for the following molecule: O=C(Nc1ccc2c(c1)CCC2)c1ccc(OC(F)(F)F)cc1
Key: 210

Exercise: // fetch IC50 given entry O=C(NCCc1cccc2ccc(O)cc12)c1ccc(OC(F)(F)F)cc1
Key: 150

Exercise: Output measured IC50 for this item: CC(CNC(=O)c1ccc(OC(F)(F)F)cc1)c1c[nH]c2ccc(O)cc12 (configuration not stated)
Key: 550

Exercise: Give IC50 for O=C(NCCC1CCCc2ccc(O)cc21)c1ccc(OC(F)(F)F)cc1 (configuration not stated)
Key: 1350

---

The following compounds are listed with their measured pIC50 values.
Measurement target: UniProt:Q8NER1
Assay procedure: Antagonist activity at human TRPV1 assessed as inhibition of capsaicin-induced calcium influx in HEK293 cells
# pIC50 is unitless: minus log10 of the molar concentration; print number only

Exercise: Note pIC50 for the compound shown: CC(Cc1ccnc2ccc(O)cc12)NC(=O)c1ccc(OC(F)(F)F)cc1 (stereo not drawn)
Key: 6.13

Exercise: In one line, give reported pIC50 of the entry O=C(NCCc1c(Cl)cccc1Cl)c1ccc(OC(F)(F)F)cc1 .
Key: 6.69

Exercise: Determine its reported pIC50: COc1ccc2[nH]cc(CCNC(=O)c3ccc(Oc4ccccc4)cc3)c2c1
Key: 5.72

Exercise: Tell us which pIC50 value is on record for O=C(NCCc1ccc(Cl)c(Cl)c1)c1ccc(OC(F)(F)F)cc1
Key: 5.43

Exercise: For CC(C)(C)c1ccc2[nH]c(-c3ccc(OC(F)(F)C(F)F)cc3)nc2c1 , write its pIC50.
Key: 6.32

Exercise: Please indicate pIC50 recorded for COc1ccc2[nH]cc(CCNC(=O)c3ccc(C(F)(F)F)cc3)c2c1
Key: 5.68

---

Assay procedure: Half life in po dosed rat administered through PEG400
Format: ADME, organism-based
Particulars: in vivo
Endpoint: half-life (h)
Express it in h; write the number only.

Exercise: Let me know recorded half-life for Cn1c2c(c3cc(O)ccc31)C(CNC(=O)c1ccc(OC(F)(F)F)cc1)CCC2 (stereo unspecified) , thanks.
Key: 2.1

---

Assay procedure: Oral bioavailability in rat administered through 0.1% MC solution
Assay type: ADME, organism-based
Particulars: in vivo
Endpoint: bioavailability

Exercise: Identify the reported bioavailability for the following entry. Cn1c2c(c3cc(O)ccc31)C(CNC(=O)c1ccc(OC(F)(F)F)cc1)CCC2 (stereo unspecified)
Key: 0.7%

---

Measurement target: Transient receptor potential cation channel subfamily V member 1 (Homo sapiens)
Assay procedure: Antagonist activity at human TRPV1 assessed as inhibition of capsaicin-induced calcium influx in HEK293 cells
pIC50: −log10 of the molar value.
Kind request: treat 6 as inclusive, so pIC50 at 6 or higher is Met, anything lower is Not met.

{"Molecule": "COc1ccc2[nH]c(C)c(C(C)CNC(=O)c3ccc(OC(F)(F)F)cc3)c2c1 (stereo not drawn)", "Class assignment": "Not met"}
{"Molecule": "O=C(NCCc1ccc(O)c2ccc(O)cc12)c1ccc(OC(F)(F)F)cc1", "Class assignment": "Met"}

Exercise: Is it the case that FC(F)(F)c1ccc(-c2ncc(-c3ccc(Br)cc3)[nH]2)cc1 has pIC50 reaching or exceeding 6?
Key: Not met

Exercise: Reported pIC50 reaches at least 6 for O=C(NCCc1ccnc2ccccc12)c1ccc(OC(F)(F)F)cc1 ?
Key: Not met

Exercise: Check this molecule for pIC50 at or above 6: O=C(NCCc1cccc2ccccc12)c1ccc(OC(F)(F)F)cc1
Key: Not met

Exercise: Item COc1ccc2c(c1)C(CCNC(=O)c1ccc(OC(F)(F)F)cc1)CCC2 (stereo not drawn) with pIC50 of 6 or above?
Key: Not met

Exercise: Evaluate CS(=O)(=O)c1ccc(C(=O)Nc2ccc(I)cc2)cc1 : pIC50 at minimum 6?
Key: Not met

Exercise: Given O=C(Nc1ccc(C2CCCCC2)cc1)c1ccc(OC(F)(F)F)cc1 , state whether its pIC50 is at least 6.
Key: Not met

Exercise: Entry COc1ccc2c(c1)c1c(n2C)CCCC1CNC(=O)c1ccc(OC(F)(F)F)cc1 (stereo not drawn) : is its pIC50 no less than 6?
Key: Met

Reference for the values: ChEMBL document CHEMBL1140826
